Assign pIC50 to each entry below.
target: T1, HLA-DR7 (DRB1*0701), purified from cell line PITOUT (human); test: competition vs 125I-peptide, purified class II MHC
T1 chain 1: not shown
T1 chain 2: not shown
Non-standard residues stand in square brackets, D forms with d. No end group written: not given here. 14 = not defined here
Answers are plain numbers, as −log10 of the molar value.

These recorded examples may help you get a feel for the data.
[dA]K[14]VYAWTLKAA[dA]-NH2 (reading uncertain; also: printed as aK(14)VYAWTLKAAa-NH2) [peptide 965.051, aK(14)…a-NH2]	6.08
[dA]K[14]VYAWTLKAA[dA]-NH2 (reading uncertain; also: printed as aK(14)VYAWTLKAAa-NH2) [peptide 965.052, aK(14)…a-NH2]	7.59

Query string: State the recorded pIC50 for this entry: [dA]K[14]VKAWTLKAA[dA]-NH2 (reading uncertain; also: printed as aK(14)VKAWTLKAAa-NH2) [peptide 965.021, aK(14)…a-NH2]
Result string: 7.05
